molecular target: MCH receptor (Homo sapiens, UniProt Q99705); experiment: High Throughput Functional Screening: FLIPR/FDSS6000 intracellular Ca2+ assay, antagonist activity against MCH; type: cell-based; settings: FLIPR/FDSS, [Ca2+]i evoked by 50 nM MCH; class by percent of control at 10^−7 M or IC50; read-out: class (percent of control at 10^−7 M or IC50)
Counter-ions that a name gives are not always drawn.
READOUT LABEL: IC50

A selection of reference data follows.
molecule="Cc1cnc(N[C@H]2CC[C@@H](NC(=O)c3ccc(F)c(C(F)(F)F)c3)CC2)cc1N(C)C [Example 13, hydrochloride]" measurement_target="MCH receptor (Homo sapiens, UniProt Q99705)" readout_label=IC50 value="< 50 nM"
molecule=Cc1cc(N(C)C)cc(N[C@H]2CC[C@@H](NC(=O)c3ccc4nonc4c3)CC2)n1 measurement_target="MCH receptor (Homo sapiens, UniProt Q99705)" readout_label=IC50 value="< 50 nM"
molecule="Cc1cnc(N[C@H]2CC[C@@H](NC(=O)c3ccc(F)c(Cl)c3)CC2)cc1N(C)C [Example 4, hydrochloride]" measurement_target="MCH receptor (Homo sapiens, UniProt Q99705)" readout_label=IC50 value="< 50 nM"
molecule="Cc1cc(N[C@H]2CC[C@@H](NC(=O)c3ccc(F)c(Cl)c3)CC2)nc(C)c1C [Example 50, hydrochloride]" measurement_target="MCH receptor (Homo sapiens, UniProt Q99705)" readout_label=IC50 value="< 50 nM"

Please tell me: IC50 of Cc1cnc(N[C@H]2CC[C@@H](NC(=O)c3cccc(Cl)c3)CC2)cc1N(C)C [Example 10, hydrochloride] , system MCH receptor (Homo sapiens, UniProt Q99705)?
< 50 nM

Please tell me: IC50 of Cc1cnc(N[C@H]2CC[C@@H](NC(=O)c3ccc(Cl)c(Cl)c3)CC2)cc1N(C)C [Example 9, hydrochloride] , system MCH receptor (Homo sapiens, UniProt Q99705)?
< 50 nM

Please tell me: IC50 of Cc1cc(N(C)C)cc(N[C@H]2CC[C@@H](NC(=O)c3ccc(F)c(Cl)c3)CC2)n1 [Example 28, hydrochloride] , system MCH receptor (Homo sapiens, UniProt Q99705)?
< 50 nM

----------
target: MCH receptor (Homo sapiens, UniProt Q99705); test: High Throughput Functional Screening: FLIPR/FDSS6000 intracellular Ca2+ assay, antagonist activity against MCH; assay type: cell-based; settings: FLIPR/FDSS, [Ca2+]i evoked by 50 nM MCH, non-endogenous constitutively active MCH receptor; read-out: IC50
Where a name gives a salt, the structure may show the parent alone.
READOUT LABEL: IC50 (nM)
Give your result in nM as a bare value.

molecule="Cc1cnc(N[C@H]2CC[C@@H](NC(=O)c3ccc(F)c(Cl)c3)CC2)cc1N(C)C [Example 4, hydrochloride]" value=1

Could you share which IC50 value was measured for Cc1cnc(N[C@H]2CC[C@@H](NC(=O)c3cc(F)c(F)c(F)c3)CC2)cc1N(C)C [Example 5, hydrochloride] ?
1.9
